Origin of the recorded values: patent US20150037348A1

Target: T1, recombinant human IL-12 (rhIL-12) (human, UniProt P29459 23-219; P29460 23-328)
T1 construct: disulfide-linked p35/p40 heterodimer (p70); also called IL-12 p70; rec. human IL12
T1 sequence (looked up) 1: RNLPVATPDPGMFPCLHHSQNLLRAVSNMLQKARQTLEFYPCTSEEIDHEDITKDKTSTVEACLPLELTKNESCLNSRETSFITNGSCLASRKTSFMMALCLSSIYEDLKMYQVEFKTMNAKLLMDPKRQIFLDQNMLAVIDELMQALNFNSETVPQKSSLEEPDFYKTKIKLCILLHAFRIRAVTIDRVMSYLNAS
T1 sequence (looked up) 2: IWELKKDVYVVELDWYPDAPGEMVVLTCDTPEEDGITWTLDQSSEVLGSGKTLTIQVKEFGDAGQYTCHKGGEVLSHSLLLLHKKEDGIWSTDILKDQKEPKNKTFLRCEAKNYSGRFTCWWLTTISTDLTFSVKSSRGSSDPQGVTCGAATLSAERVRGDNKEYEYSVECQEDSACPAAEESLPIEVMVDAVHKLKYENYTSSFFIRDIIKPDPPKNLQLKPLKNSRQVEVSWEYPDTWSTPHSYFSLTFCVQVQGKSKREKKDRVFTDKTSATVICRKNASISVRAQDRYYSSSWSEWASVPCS
Experiment: BIAcore SPR, IL-12 on chip
Label Met when koff is at or above 0.0008 s⁻¹; otherwise label Not met.

stdin: Reported koff reaches at least 0.0008 s⁻¹ for C6 (scFv, V domains shown, scFv clone) VH: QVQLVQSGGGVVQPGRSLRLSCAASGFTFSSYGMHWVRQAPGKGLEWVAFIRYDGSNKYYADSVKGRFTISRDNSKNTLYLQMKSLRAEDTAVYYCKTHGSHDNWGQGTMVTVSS VL: SYVLTQPPSVSGTPGQRVTISCSGGRSNIGSNTVKWYQQLPGTAPKLLIYGNDQRPSGVPDRFSGSKSGTSASLAITGVQAEDEADYYCQSYDRGQTPSITFGTGTKVTVL ?
stdout: Met

stdin: Reported koff reaches at least 0.0008 s⁻¹ for 99-G7 (scFv, V domains shown, scFv clone) VH: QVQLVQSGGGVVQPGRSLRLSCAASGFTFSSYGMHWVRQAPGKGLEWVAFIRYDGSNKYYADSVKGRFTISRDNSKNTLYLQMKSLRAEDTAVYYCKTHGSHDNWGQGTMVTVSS VL: SYVLTQPPSVSGTPGQRVTISCSGGRSNIGSNTVKWYQQLPGTAPKLLIYGNDQRPSGVPDRFSGSKSGTSASLAITGVQAEDEADYYCQSYLKSRAFSRVFGTGTKVTVL ?
stdout: Met

stdin: Reported koff reaches at least 0.0008 s⁻¹ for Y61 (scFv, V domains shown, also called Y61 scFv; clone Y61; not shown: scFv linker and any tags) VH: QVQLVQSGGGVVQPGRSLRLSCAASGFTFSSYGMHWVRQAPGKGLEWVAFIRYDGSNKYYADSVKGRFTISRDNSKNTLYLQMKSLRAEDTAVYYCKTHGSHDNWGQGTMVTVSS VL: SYVLTQPPSVSGTPGQRVTISCSGGRSNIGSNTVKWYQQLPGTAPKLLIYGNDQRPSGVPDRFSGSKSGTSASLAITGVQAEDEADYYCQSYDRGTHPALLFGTGTKVTVL ?
stdout: Not met

stdin: Reported koff reaches at least 0.0008 s⁻¹ for Y174 (scFv, V domains shown, scFv clone) VH: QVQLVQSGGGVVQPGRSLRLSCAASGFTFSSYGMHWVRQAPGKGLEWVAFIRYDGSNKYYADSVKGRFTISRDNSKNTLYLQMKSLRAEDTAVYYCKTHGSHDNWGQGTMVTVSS VL: SYVLTQPPSVSGTPGQRVTISCSGGRSNIGSNTVKWYQQLPGTAPKLLIYGNDQRPSGVPDRFSGSKSGTSASLAITGVQAEDEADYYCQSYDRGTTPAPEFGTGTKVTVL ?
stdout: Not met

stdin: Reported koff reaches at least 0.0008 s⁻¹ for L3.3R3M-A3 (scFv, V domains shown, scFv clone) VH: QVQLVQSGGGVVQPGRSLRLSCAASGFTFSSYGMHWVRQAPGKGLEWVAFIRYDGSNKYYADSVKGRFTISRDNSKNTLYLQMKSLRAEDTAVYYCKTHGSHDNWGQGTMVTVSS VL: SYVLTQPPSVSGTPGQRVTISCSGGRSNIGSNTVKWYQQLPGTAPKLLIYGNDQRPSGVPDRFSGSKSGTSASLAITGVQAEDEADYYCQSYDRGFTGSMVFGTGTKVTVL ?
stdout: Met
